- Test system: rodent lifetime carcinogenesis bioassay, tumor incidence TD50
- Experimental details: carcinogenic potency in animals, long-term in vivo studies, CPDB compilation (AID 1745844)
- Reported conditions: mouse; strain B6C3F1; females; in feed; site: urinary bladder; lesion: transitional-cell carcinoma; dosed 96 weeks; study length 104 weeks

[
  {
    "Structure smiles string": "CCOc1ccc(NC(C)=O)cc1",
    "Study target": "rodent lifetime carcinogenesis bioassay, tumor incidence TD50",
    "TD50": "37000 mg/kg/day"
  }
]

----------
- System: rodent lifetime carcinogenesis bioassay, tumor incidence TD50
- Experimental details: carcinogenic potency in animals, long-term in vivo studies, CPDB compilation (AID 1745844)
- Reported conditions: rat; strain Fischer 344; females; in feed; site: liver; lesion: neoplastic nodule; dosed 59 weeks; study length 104 weeks

[
  {
    "Structure smiles string": "CN(C)c1ccc(Cc2ccc(N(C)C)cc2)cc1",
    "TD50, mg/kg/day": 203
  }
]

----------
- System: rodent lifetime carcinogenesis bioassay, tumor incidence TD50
- Experimental details: carcinogenic potency in animals, long-term in vivo studies, CPDB compilation (AID 1745844)
- Reported conditions: mouse; strain B6C3F1; females; in feed; site: uterus; lesion: reticulum-cell sarcoma, type A; dosed 107 weeks; study length 107 weeks
Measured metric: TD50

[
  {
    "Structure smiles string": "CN(C)c1ccc(C(=C2C=CC(=[N+](C)C)C=C2)c2ccc(N(C)C)cc2)cc1",
    "Measured metric": "TD50",
    "Test value": "413 mg/kg/day"
  }
]

----------
- Tested on: rodent lifetime carcinogenesis bioassay, tumor incidence TD50
- Experimental details: carcinogenic potency in animals, long-term in vivo studies, CPDB compilation (AID 1745844)
- Reported conditions: mouse; strain Swiss albino; females; in drinking water; site: liver; lesion: several types; types named in the paper; dosed 82 weeks; study length 82 weeks

[
  {
    "Structure smiles string": "CCNN",
    "TD50": "13 mg/kg/day"
  }
]

----------
- Test system: rodent lifetime carcinogenesis bioassay, tumor incidence TD50
- Experimental details: carcinogenic potency in animals, long-term in vivo studies, CPDB compilation (AID 1745844)
- Reported conditions: mouse; strain AKR; females; in drinking water; site: lung; lesion: one or several types; types not named; dosed 70 weeks; study length 70 weeks
Active and inactive are the calls of the source. How the calls were made is not given here.

[
  {
    "Structure smiles string": "NNC(=O)c1ccncc1",
    "TD50": "89.6 mg/kg/day (inactive)"
  }
]

----------
- Tested on: rodent lifetime carcinogenesis bioassay, tumor incidence TD50
- Experimental details: carcinogenic potency in animals, long-term in vivo studies, CPDB compilation (AID 1745844)
- Reported conditions: rat; strain Sprague-Dawley; males; inhaled; site: several sites; sites named in the paper; lesion: angiosarcoma; dosed 76 weeks; study length 103 weeks

[
  {
    "Structure smiles string": "C=CBr",
    "TD50": "17.9 mg/kg/day"
  }
]

----------
- System: rodent lifetime carcinogenesis bioassay, tumor incidence TD50
- Experimental details: carcinogenic potency in animals, long-term in vivo studies, CPDB compilation (AID 1745844)
- Reported conditions: mouse; strain Swiss albino; females; in drinking water; site: gall bladder; lesion: adenoma; dosed 92 weeks; study length 92 weeks
Measured metric: TD50 (mg/kg/day)

[
  {
    "Structure smiles string": "CN(N)C=O",
    "Measured metric": "TD50",
    "Test value": 39.7
  }
]
